METHOD_SUMMARY: in vitro
MEASURED_QUANTITY: CC50 at 24 h (µM)
// return numeric value only (unit: µM, not printed)

Examples from the recorded data:
>  <COMPOUND>
C=CCOc1cc(O)c2c(=O)c(-c3ccc(O)cc3)coc2c1 [IFG-027]

>  <READOUT_NUMBER>
13.1

$$$$
>  <COMPOUND>
CC(=O)Oc1ccc(-c2coc3cc(OCc4ccccc4)cc(O)c3c2=O)cc1 [IFG-067]

>  <READOUT_NUMBER>
15.1

$$$$
>  <COMPOUND>
CCCCCCCCCCCCCCCC(=O)Oc1cc(O)c2c(=O)c(-c3ccc(O)cc3)coc2c1 [IFG-018]

>  <READOUT_NUMBER>
41.7

$$$$
>  <COMPOUND>
Nc1ccccc1C(=O)Oc1ccc(-c2coc3cc(O)cc(O)c3c2=O)cc1 [IFG-001]

>  <READOUT_NUMBER>
13.9

$$$$
>  <COMPOUND>
CC(C)(C)OC(=O)COc1ccc(-c2coc3cc(OCC(=O)OC(C)(C)C)cc(O)c3c2=O)cc1 [IFG-042]

>  <READOUT_NUMBER>
22

$$$$

input: Field request: CC50 at 24 h | item: C=CCOC(=O)Oc1cc(O)c2c(=O)c(-c3ccc(O)cc3)coc2c1 [IFG-063]
output: 51.5

input: // query CC50 at 24 h value for entry O=C(O)CCCC(=O)Oc1ccc(-c2coc3cc(OCc4ccccc4)cc(O)c3c2=O)cc1 [IFG-060]
output: 14.9

* * *

Entries and their CC50 at 24 h values follow.
METHOD_SUMMARY: in vitro

>  <COMPOUND>
CC(C)(C#N)c1cc(COc2ccc(-c3coc4cc(OCc5ccccc5)cc(O)c4c3=O)cc2)cc(C(C)(C)C#N)c1 [IFG-053]

>  <MEASURED_QUANTITY>
CC50 at 24 h

>  <RESULT>
> 30 µM

$$$$
>  <COMPOUND>
CC(=O)Oc1ccc(-c2coc3cc(OC(C)=O)cc(OC(C)=O)c3c2=O)cc1 [IFG-032]

>  <MEASURED_QUANTITY>
CC50 at 24 h

>  <RESULT>
> 30 µM

$$$$

Pending compound:
input: Value lookup for CC50 at 24 h; key = CC(=O)OCCCCCOc1cc(O)c2c(=O)c(-c3ccc(O)cc3)coc2c1 [IFG-071]
output: > 30 µM

* * *

Test system: MPS IIIB fibroblasts
METHOD_SUMMARY: Number of lysosomal structures by electron microscopy, MPS IIIB
Format: cell-based, human
CONDITIONS_USED: 30 μM
MEASURED_QUANTITY: Number of structures per 100 μm^2 of cellular cross section ± SD, total number

Some solved entries appear below for comparison.
>  <COMPOUND>
CCCC[N+](CCCC)(CCCC)CCCC.O=C([O-])CCCC(=O)Oc1cc(O)c2c(=O)c(-c3ccc(O)cc3)coc2c1 [IFG-038]

>  <RESULT>
0.41 ± 0.18 per 100 μm^2

$$$$
>  <COMPOUND>
O=C(Oc1cc(O)c2c(=O)c(-c3ccc(O)cc3)coc2c1)c1ccccc1O [IFG-034]

>  <RESULT>
0.41 ± 0.16 per 100 μm^2

$$$$
>  <COMPOUND>
O=c1c(-c2ccc(O)cc2)coc2cc(OCCCO)cc(O)c12 [IFG-072]

>  <RESULT>
0.41 ± 0.20 per 100 μm^2

$$$$

Turning now to a further compound:
input: Recorded Number of structures per 100 μm^2 of cellular cross section ± SD, total number for CC(=O)Oc1ccc(-c2coc3cc(OC(C)=O)cc(OC(C)=O)c3c2=O)cc1 [IFG-032] , please?
output: 0.40 ± 0.20 per 100 μm^2
